system: sugar beet; experiment: Test B pre/postemergence sugar beet; assay type: in vivo, Beta vulgaris; conditions: Preemergence, Rate 250 g/ha; scale 0 to 10, 0 is no effect, 10 is complete control
measure: Sugarbeets plant response rating

- Cc1noc(C)c1-n1c(=O)on(C(=O)N(c2ccc(F)cc2F)C(C)C)c1=O [Compound 156]: 0
- CC(C)Cn1c(=O)on(C(=O)N(c2ccccc2)C(C)C)c1=O [Compound 410]: 0
- CC(C)N(C(=O)n1oc(=O)n(COC(=O)C(C)(C)C)c1=O)c1ccc(F)cc1 [Compound 462]: 0
- COC(OC)C(C)n1c(=O)on(C(=O)N(c2ccc(F)cc2)C(C)C)c1=O (stereo not shown) [Compound 471]: 2

====

Attribute: Soybean plant response rating
test system: soybean; test: Test B pre/postemergence soybean; assay type: in vivo, Glycine max; conditions: Rate 500 g/ha, Postemergence; scale 0 to 10, 0 no effect, 10 complete control
measure: Soybean plant response rating

- CCN(Cc1ccccc1)C(=O)n1oc(=O)n(-c2ccccc2C)c1=O: 0
- CC(C)N(C(=O)n1oc(=O)n(Cc2ccccc2)c1=O)c1ccc(Cl)cc1: 1
- COc1cccc(C)c1-n1c(=O)on(C(=O)N(c2ccc(F)cc2)C(C)C)c1=O: 3
- Cc1nc(C)c(Cn2c(=O)on(C(=O)N(c3ccc(F)cc3F)C(C)C)c2=O)s1: 5
- CCOC(=O)C(C)N(C(=O)n1oc(=O)n(-c2ccccc2C)c1=O)c1ccc(F)cc1 (centres unmarked): 0

====

test system: pigweed; assay: Test B pre/postemergence pigweed; format: in vivo, Amaranthus retroflexus; details: Rate 125 g/ha; Postemergence; scale 0 to 10, 0 no effect, 10 complete control
Attribute: Redroot pigweed plant response rating
measure: Redroot pigweed plant response rating

- CCN(Cc1ccccc1)C(=O)n1oc(=O)n(-c2ccccc2C)c1=O [Compound 71]: 0
- Cc1ccc(-n2c(=O)on(C(=O)N(c3ccc(F)cc3F)C(C)C)c2=O)c(C)c1 [Compound 24]: 2
- CC(C)N(C(=O)n1oc(=O)n(-c2ccc(F)cc2F)c1=O)c1ccc(F)cc1F [Compound 22]: 1
- COc1cccc(C)c1-n1c(=O)on(C(=O)N(c2ccc(F)cc2)C(C)C)c1=O [Compound 62]: 0
- Cc1ccccc1Cn1c(=O)on(C(=O)N(C)c2ccccc2)c1=O [Compound 85]: 0
- Cc1ccccc1-n1c(=O)on(C(=O)N(c2ccc(F)cc2)C2CC2)c1=O [Compound 37]: 0
- COc1ccc(-n2c(=O)on(C(=O)N(c3ccc(F)cc3)C(C)C)c2=O)cc1 [Compound 5]: 7

====

system: giant foxtail; experiment: Test B pre/postemergence giant foxtail; assay type: in vivo, Setaria faberii; conditions: Postemergence, Rate 62 g/ha; scale of 0 to 10, 0 is no effect, 10 is complete control
measure: Giant foxtail plant response rating

* CC(C)N(C(=O)n1oc(=O)n(CCc2ccccc2)c1=O)c1ccccc1 | 0
* CCC=CCn1c(=O)on(C(=O)N(c2ccc(F)cc2F)C(C)C)c1=O | 2
* CC(C)N(C(=O)n1oc(=O)n(C[Si](C)(C)C)c1=O)c1ccc(F)cc1F | 0
* CCOC(=O)C=C(Cn1c(=O)on(C(=O)N(c2ccc(Cl)cc2)C(C)C)c1=O)OCC | 2

====

test system: soybean; assay: Test B pre/postemergence soybean; assay type: in vivo, Glycine max; details: Postemergence, Rate 125 g/ha; scale of 0 to 10 where 0 is no effect and 10 is complete control
So basically: Soybean plant response rating at 3 or higher? That is Satisfied. Lower than 3? That is Not satisfied.

- CC(C)N(C(=O)n1oc(=O)n(Cc2nnc(Cl)s2)c1=O)c1ccccc1: Not satisfied
- Cc1noc(C)c1-n1c(=O)on(C(=O)N(c2ccc(F)cc2F)C(C)C)c1=O: Not satisfied
- Cc1ccccc1-n1c(=O)on(C(=O)N(c2c(F)cccc2F)C(C)C)c1=O: Not satisfied
- CC(C)N(C(=O)n1oc(=O)n(CC(=O)C2CCC2)c1=O)c1ccc(F)cc1F: Not satisfied
- C=CCn1c(=O)on(C(=O)N(c2ccc(F)cc2F)C2CC2)c1=O: Not satisfied
- CC(C)N(C(=O)n1oc(=O)n(CCCCl)c1=O)c1ccc(F)cc1: Satisfied
